# studyTarget: KRAS-G12V (Homo sapiens, UniProt P01116, G12V)
# Sequence (P01116 with tags, fused parts or gaps isoform P01116-2 G12V): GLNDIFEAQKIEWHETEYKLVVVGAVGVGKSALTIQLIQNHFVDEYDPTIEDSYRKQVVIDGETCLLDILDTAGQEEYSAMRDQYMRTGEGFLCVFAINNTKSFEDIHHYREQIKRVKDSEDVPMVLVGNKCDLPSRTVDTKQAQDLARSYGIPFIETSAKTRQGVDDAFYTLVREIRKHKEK
# assayNotes: SOS-catalyzed nucleotide exchange assay (Procedure A, TR-FRET), KRAS-G12V
# Assay type: biochemical
# conditionInfo: nucleotide exchange, read-out: KRAS G12V GNE IC50
Can you tell me IC50 for the items I'm about to list?
Record the value in nM, omitting the unit from your answer.

Consider C[C@@]1(O)COCCN(c2nc(OC[C@]3(CN4[C@@H]5CC[C@H]4C[C@H](F)C5)CC3(F)F)nc3sc4c(-c5c(C6(F)CC6)c(Cl)cc6[nH]ncc56)nccc4c23)C1 [Ex-251] . Its measured IC50 is 110

Consider C[C@@]1(O)COCCN(c2nc(OC[C@]3(CN4CCOC5(CC5)C4)CC3(F)F)nc3sc4c(-c5c(C6(F)CC6)c(Cl)cc6[nH]ncc56)nccc4c23)C1 [Ex-264] . Its measured IC50 is 215

Consider C[C@@]1(O)COCCN(c2nc(OC[C@]3(CN4C[C@@H]5CCCO[C@H]5C4)CC3(F)F)nc3sc4c(-c5c(C6(F)CC6)c(Cl)cc6[nH]ncc56)nccc4c23)C1 [Ex-252] . Its measured IC50 is 32.2

Consider Cc1cc2[nH]ncc2c(-c2nccc3c2sc2nc(OC[C@@]45CCCN4C[C@H](F)C5)nc(N4CCOC[C@@](C)(O)C4)c23)c1C1(F)CC1 [Ex-54] . Its measured IC50 is 11.1

Consider Cn1c2nc(OC[C@@]34CCCN3C[C@H](F)C4)nc(N3CCOC[C@@](C)(O)C3)c2c2ccnc(-c3ccc(F)c4sc(N)c(C#N)c34)c21 [Ex-16] . Its measured IC50 is 561

Consider C[C@@]1(O)COCCN(c2nc(OC[C@]3(CN4CC5(CCOCC5)C4)CC3(F)F)nc3sc4c(-c5c(C6(F)CC6)c(Cl)cc6[nH]ncc56)nccc4c23)C1 [Ex-248] . Its measured IC50 is 15.5

Consider Cc1cc2[nH]ncc2c(-c2nccc3c2sc2nc(OC[C@@]45CCCN4C[C@H](F)C5)nc(NC4CCOC4)c23)c1C(F)(F)F (some centres unmarked) [Ex-188] . Its measured IC50 is 753

Consider C[C@@]1(O)COCCN(c2nc(OC[C@]3(CN4CC5(CCOC5)C4)CC3(F)F)nc3sc4c(-c5c(C6(F)CC6)c(Cl)cc6[nH]ncc56)nccc4c23)C1 [Ex-245] . Its measured IC50 is 12.9

Consider Cc1cc2[nH]ncc2c(-c2nccc3c2sc2nc(OC[C@@]45CCCN4C[C@H](F)C5)nc(N4CCOCC4)c23)c1C(F)(F)F [Ex-179] . Its measured IC50 is 1600

Consider C[C@@]1(O)COCCN(c2nc(OC[C@@]34CCCN3C[C@H](F)C4)nc3sc4c(-c5c(C6CC6)c(Cl)cc6[nH]ncc56)nncc4c23)C1 [Ex-280] . Its measured IC50 is 12.4

Consider C[C@@]1(O)COCCN(c2nc(OC[C@@]34CCCN3C[C@H](F)C4)nc3sc4c(-c5c6c(cc7[nH]ncc57)CCC65CC5)nccc4c23)C1 [Ex-88] . Its measured IC50 is 42.5

Consider COc1cc2c3c(N4CCOC[C@@](C)(O)C4)nc(OC[C@@]45CCCN4C[C@H](F)C5)nc3n(C)c2c(-c2c(C(F)(F)F)c(C)cc3[nH]ncc23)n1 [Ex-26] . Its measured IC50 is 96.3

Consider C=C(C)c1c(C)cc2[nH]ncc2c1-c1nccc2c1oc1nc(OC[C@]3(CN(C)C)CC3(F)F)nc(N3CCOC[C@@](C)(O)C3)c12 [Ex-293] . Its measured IC50 is 203

Consider CC1(F)CCN(C[C@@]2(COc3nc(N4CCOC[C@@](C)(O)C4)c4c(n3)sc3c(-c5c(C6(F)CC6)c(Cl)cc6[nH]ncc56)nccc34)CC2(F)F)CC1 [Ex-232] . Its measured IC50 is 197

Consider C[C@@]1(O)COCCN(c2nc(OC[C@@]34CCCN3C[C@H](F)C4)nc3sc4c(-c5c6c(cc7[nH]ncc57)CC=C6C5CC5)nccc4c23)C1 [Ex-105] . Its measured IC50 is 37.2

Consider C#Cc1cccc2cccc(-c3nccc4c3sc3nc(OC[C@@]56CCCN5C[C@H](F)C6)nc(N5CCOC[C@@](C)(O)C5)c34)c12 [Ex-127] . Its measured IC50 is 121

Consider Cc1cc2[nH]ncc2c(-c2nccc3c2sc2nc(OC[C@@]45CCCN4C[C@H](F)C5)nc(N4CCOC[C@@](C)(O)C4)c23)c1C(F)(F)F [Ex-126] . Its measured IC50 is 52.8

Consider Cc1cc2[nH]ncc2c(-c2nccc3c2oc2nc(OC[C@]4(CN(C)C)CC4(F)F)nc(N4CCOC[C@@](C)(O)C4)c23)c1C(F)F [Ex-292] . Its measured IC50 is 134

Consider Cc1cc2[nH]ncc2c(-c2nccc3c2sc2nc(OC[C@@]45CCCN4C[C@H](F)C5)nc(N4CCOC[C@@](C)(O)C4)c23)c1C1CCCC1 [Ex-147] . Its measured IC50 is 293

Consider C[C@@]1(O)COCCN(c2nc(OC[C@]3(CN4CC5(CCO5)C4)CC3(F)F)nc3sc4c(-c5c(C6(F)CC6)c(Cl)cc6[nH]ncc56)nccc4c23)C1 [Ex-265] . Its measured IC50 is 14.9

Consider Cc1cc2[nH]ncc2c(-c2nccc3c2sc2nc(OC[C@@]45CCCN4C[C@H](F)C5)nc(N4CCCC5(CC(=O)N5)C4)c23)c1C(F)(F)F (some centres unmarked) [Ex-195] . Its measured IC50 is 77.9

Consider Cc1cc2[nH]ncc2c(-c2nccc3c2sc2nc(OC[C@@]45CCCN4C[C@H](F)C5)nc(N4CCOC[C@@](C)(O)C4)c23)c1[C@@H]1C[C@H]1C (atropisomer, axis not shown; (aS)) [Ex-67] . Its measured IC50 is 23.1

Consider CCOc1c(C)cc2[nH]ncc2c1-c1nccc2c1sc1nc(OC[C@@]34CCCN3C[C@H](F)C4)nc(N3CCOC[C@@](C)(O)C3)c12 [Ex-38] . Its measured IC50 is 186
